Catalogue of viability, T/C values
Tested on: 935938-334-R-J1-PDC complex spheroid viability
assay-text: Anticancer human tumor 935938-334-R-J1-PDC patient-derived small intestine adenocarcinoma cell line growth inhibition [POLQ]
details: second compound 1 µM; first compound 0.1 µM; stronger effect = lower value
Express the result in % but write the number alone.

Examples with answers:
compound	value-kind	value-reported
CC(C)n1c(=O)n(C)c2cnc3cc(F)c(-c4ccc(OCCCN5CCCCC5)nc4)cc3c21 + Cc1cccc(N(C)C(=O)C2C(O)CCN2c2nc(C)cc(C(F)(F)F)c2C#N)c1	viability, T/C	103
Cn1ncnc1[C@H]1c2n[nH]c(=O)c3cc(F)cc(c23)N[C@@H]1c1ccc(F)cc1 + COC1C(OC(N)=O)C(O)C(Oc2ccc3c(O)c(NC(=O)c4ccc(O)c(CC=C(C)C)c4)c(=O)oc3c2C)OC1(C)C	viability, T/C	70.6
COc1ccc([C@@H](O)c2cc(-c3ncnc4cc(N5CCOCC5)ccc34)c(F)cc2Cl)nn1 + COC1C(OC(N)=O)C(O)C(Oc2ccc3c(O)c(NC(=O)c4ccc(O)c(CC=C(C)C)c4)c(=O)oc3c2C)OC1(C)C	viability, T/C	125
CC1COCCN1c1cc(C2(O)CC3CCC(C2)O3)c2cnn(-c3ccn[nH]3)c2n1 (stereo unspecified) + Cc1cccc(N(C)C(=O)C2C(O)CCN2c2nc(C)cc(C(F)(F)F)c2C#N)c1	viability, T/C	74.5
CCc1cc2c(N3CCc4c(cc(Cn5ccnc5)cc4-c4cn(C)nc4C(F)(F)F)C3=O)cc(C)nc2c(OC)n1 + Cc1cccc(N(C)C(=O)C2C(O)CCN2c2nc(C)cc(C(F)(F)F)c2C#N)c1	viability, T/C	61.9

// Input: CCCS(=O)(=O)Nc1ccc(F)c(C(=O)c2c[nH]c3ncc(-c4ccc(Cl)cc4)cc23)c1F + Nc1ccc(C#CCN(C(=O)Cc2ncc(C(F)(F)F)cc2C(F)(F)F)c2ccc(F)cc2)nn1 . Output its viability, T/C only.
97.4

// Input: COc1ccc([C@@H](O)c2cc(-c3ncnc4cc(N5CCOCC5)ccc34)c(F)cc2Cl)nn1 + Nc1ccc(C#CCN(C(=O)Cc2ncc(C(F)(F)F)cc2C(F)(F)F)c2ccc(F)cc2)nn1 . Output its viability, T/C only.
96.6

// Input: CCc1cc2c(N3CCc4c(cc(Cn5ccnc5)cc4-c4cn(C)nc4C(F)(F)F)C3=O)ccnc2c(OC)n1 + Nc1ccc(C#CCN(C(=O)Cc2ncc(C(F)(F)F)cc2C(F)(F)F)c2ccc(F)cc2)nn1 . Output its viability, T/C only.
67.1

// Input: CCc1cc2c(N3CCc4c(cc(Cn5ccnc5)cc4-c4cn(C)nc4C(F)(F)F)C3=O)cc(C)nc2c(OC)n1 + COC1C(OC(N)=O)C(O)C(Oc2ccc3c(O)c(NC(=O)c4ccc(O)c(CC=C(C)C)c4)c(=O)oc3c2C)OC1(C)C . Output its viability, T/C only.
72

// Input: COc1cccc2c1C(=O)c1c(O)c3c(c(O)c1C2=O)CC(O)(C(=O)CO)CC3OC1CC(N)C(O)C(C)O1 (stereo unspecified) + Cc1cccc(N(C)C(=O)C2C(O)CCN2c2nc(C)cc(C(F)(F)F)c2C#N)c1 . Output its viability, T/C only.
34.2

// Input: CC1COCCN1c1cc(-c2ccnn2C)c2ccnc(-c3ccn[nH]3)c2n1 (stereo unspecified) + Nc1ccc(C#CCN(C(=O)Cc2ncc(C(F)(F)F)cc2C(F)(F)F)c2ccc(F)cc2)nn1 . Output its viability, T/C only.
40.2

// Input: COc1cc(C2c3cc4c(cc3C(OC3OC5COC(C)OC5C(O)C3O)C3COC(=O)C23)OCO4)cc(OC)c1O (stereo unspecified) + Nc1ccc(C#CCN(C(=O)Cc2ncc(C(F)(F)F)cc2C(F)(F)F)c2ccc(F)cc2)nn1 . Output its viability, T/C only.
89.2

// Input: C#Cc1c(F)ccc2cc(O)cc(-c3ncc4c(N5CC6CCC(C5)N6)nc(OCC56CCCN5CC(F)C6)nc4c3F)c12 (stereo unspecified) + COC1C(OC(N)=O)C(O)C(Oc2ccc3c(O)c(NC(=O)c4ccc(O)c(CC=C(C)C)c4)c(=O)oc3c2C)OC1(C)C . Output its viability, T/C only.
81.2

// Input: O=C(c1cc(Cc2n[nH]c(=O)c3ccccc23)ccc1F)N1CCN(C(=O)C2CC2)CC1 + Cc1cccc(N(C)C(=O)C2C(O)CCN2c2nc(C)cc(C(F)(F)F)c2C#N)c1 . Output its viability, T/C only.
86.8

// Input: O=C(Nc1ccc(O)c(NS(=O)(=O)c2ccc(F)cc2)c1)c1ccc(-c2ccccc2)cc1 + Cc1cccc(N(C)C(=O)C2C(O)CCN2c2nc(C)cc(C(F)(F)F)c2C#N)c1 . Output its viability, T/C only.
80.3

// Input: CNCc1ccc(-c2[nH]c3cc(F)cc4c3c2CCNC4=O)cc1 + Nc1ccc(C#CCN(C(=O)Cc2ncc(C(F)(F)F)cc2C(F)(F)F)c2ccc(F)cc2)nn1 . Output its viability, T/C only.
78.2

// Input: O=c1[nH]cc(F)c(=O)[nH]1 + Nc1ccc(C#CCN(C(=O)Cc2ncc(C(F)(F)F)cc2C(F)(F)F)c2ccc(F)cc2)nn1 . Output its viability, T/C only.
79.7

// Input: C#Cc1c(F)ccc2cc(O)cc(-c3ncc4c(N5CC6CCC(C5)N6)nc(OCC56CCCN5CC(F)C6)nc4c3F)c12 (stereo unspecified) + Cc1cccc(N(C)C(=O)C2C(O)CCN2c2nc(C)cc(C(F)(F)F)c2C#N)c1 . Output its viability, T/C only.
75

// Input: CC[C@@]1(O)C(=O)OCc2c1cc1n(c2=O)Cc2cc3c(CN(C)C)c(O)ccc3nc2-1 + Nc1ccc(C#CCN(C(=O)Cc2ncc(C(F)(F)F)cc2C(F)(F)F)c2ccc(F)cc2)nn1 . Output its viability, T/C only.
48

// Input: COc1cc2cc(C(=O)CCC(=O)O)sc2cc1OC + Cc1cccc(N(C)C(=O)C2C(O)CCN2c2nc(C)cc(C(F)(F)F)c2C#N)c1 . Output its viability, T/C only.
96.5

// Input: COc1cc2cc(C(=O)CCC(=O)O)sc2cc1OC + Nc1ccc(C#CCN(C(=O)Cc2ncc(C(F)(F)F)cc2C(F)(F)F)c2ccc(F)cc2)nn1 . Output its viability, T/C only.
114

====

Tested on: 935938-334-R-J1-PDC complex spheroid viability
assay-text: Anticancer human tumor 935938-334-R-J1-PDC cell line growth inhibition [POLQ];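 also: spheroids exposed to drugs for seven days before viability read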;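 as to viability, T/C: 100% = DMSO vehicle control wells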
details: second compound 0.1 µM; first compound 10 µM; stronger effect = lower value
Catalogue of viability, T/C values
Express the result in % but write the number alone.

Report value only: viability, T/C, 935938-334-R-J1-PDC complex spheroid viability, CCCS(=O)(=O)Nc1ccc(F)c(C(=O)c2c[nH]c3ncc(-c4ccc(Cl)cc4)cc23)c1F + COC1C(OC(N)=O)C(O)C(Oc2ccc3c(O)c(NC(=O)c4ccc(O)c(CC=C(C)C)c4)c(=O)oc3c2C)OC1(C)C
40.2

Report value only: viability, T/C, 935938-334-R-J1-PDC complex spheroid viability, CNCc1ccc(-c2[nH]c3cc(F)cc4c3c2CCNC4=O)cc1 + Cc1cccc(N(C)C(=O)C2C(O)CCN2c2nc(C)cc(C(F)(F)F)c2C#N)c1
76.8

Report value only: viability, T/C, 935938-334-R-J1-PDC complex spheroid viability, COc1cc(C2c3cc4c(cc3C(OC3OC5COC(C)OC5C(O)C3O)C3COC(=O)C23)OCO4)cc(OC)c1O (stereo not drawn) + COC1C(OC(N)=O)C(O)C(Oc2ccc3c(O)c(NC(=O)c4ccc(O)c(CC=C(C)C)c4)c(=O)oc3c2C)OC1(C)C
30.7

====

Test system: 935938-334-R-J1-PDC complex spheroid viability
assay-text: Anticancer human tumor 935938-334-R-J1-PDC cell line growth inhibition [POLQ];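 also: spheroids exposed to drugs for seven days before viability read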
details: curve of first compound; second compound 0.316 µM
value-kind: pIC50
Answer as the number alone; pIC50 is minus log10 of concentration in mol/L.

compound	pIC50
CCc1c2c(nc3ccc(O)cc13)-c1cc3c(c(=O)n1C2)COC(=O)[C@]3(O)CC + Cc1cccc(N(C)C(=O)C2C(O)CCN2c2nc(C)cc(C(F)(F)F)c2C#N)c1	7.61
CCc1c2c(nc3ccc(O)cc13)-c1cc3c(c(=O)n1C2)COC(=O)[C@]3(O)CC + COC1C(OC(N)=O)C(O)C(Oc2ccc3c(O)c(NC(=O)c4ccc(O)c(CC=C(C)C)c4)c(=O)oc3c2C)OC1(C)C	7.75
CC1COCCN1c1cc(C2(O)CC3CCC(C2)O3)c2cnn(-c3ccn[nH]3)c2n1 (centres undefined) + COC1C(OC(N)=O)C(O)C(Oc2ccc3c(O)c(NC(=O)c4ccc(O)c(CC=C(C)C)c4)c(=O)oc3c2C)OC1(C)C	6.77

Report value only: pIC50, 935938-334-R-J1-PDC complex spheroid viability, COc1cc(C2c3cc4c(cc3C(OC3OC5COC(C)OC5C(O)C3O)C3COC(=O)C23)OCO4)cc(OC)c1O (centres undefined) + COC1C(OC(N)=O)C(O)C(Oc2ccc3c(O)c(NC(=O)c4ccc(O)c(CC=C(C)C)c4)c(=O)oc3c2C)OC1(C)C
6.16

Report value only: pIC50, 935938-334-R-J1-PDC complex spheroid viability, CC1COCCN1c1cc(C2(S(C)(=N)=O)CC2)nc(-c2ccnc3[nH]ccc23)n1 (centres undefined) + Nc1ccc(C#CCN(C(=O)Cc2ncc(C(F)(F)F)cc2C(F)(F)F)c2ccc(F)cc2)nn1
5.49
